assay: EFdA Rat PK Studies (subcutaneous and intramuscular groups), plasma concentration by LC-MS/MS; assay type: in vivo, Wistar Han rats; settings: male, Wistar Han, rat, plasma, sc, 20 mg/kg, 4 hr; SC 20 mg/kg; plasma; read-out: Assayed Concentrations of EFdA, individual rats
measured parameter: concentration at 4 h (ng/mL)
Numbers only, in ng/mL.

Entry under test: "C#C[C@]1(CO)O[C@@H](n2cnc3c(N)nc(F)nc32)C[C@@H]1O" . Its concentration at 4 h was 534

---

Experiment: in vivo
Conditions: male, Wistar Han, rat, in vivo; day 56; single IM Example 37A 56 mg/kg; read-out: Mean concentration of Example 37A
Source text: General Protocol for Prodrugs Rat PK Studies Conducted at ChemPartner, China A total of three naïve male Wistar Han rats, 200-250 g, were received from Beijing VR Laboratory Animal Co. LTD. Following an acclimation period, the animals were assigned to the study based on acceptable health as determined by a staff veterinarian and catheter patency. Fasting of the animals before or after dosing was not required. […]
measured parameter: concentration at 56 day (ng/mL)
Numbers only, in ng/mL.

Entry under test: C#C[C@]1(COP(=O)(N[C@@H](C)C(=O)OC(CCCCCCCCCC)CCCCCCCCCC)Oc2ccccc2)O[C@@H](n2cnc3c(N)nc(F)nc32)C[C@@H]1O (single isomer, unassigned) [Example 37A] . Its concentration at 56 day was 4.94

---

assay: in vivo; conditions: male, Wistar Han, rat, in vivo; day 56; single IM Example 20A 57 mg/kg; read-out: Mean concentration of Example 20A
measured parameter: concentration at 56 day (ng/mL)
One number for each entry, in ng/mL.

Entry under test: C#C[C@]1(COP(=O)(N[C@@H](Cc2ccccc2)C(=O)OCCCCCCCCCCCCCCCCC)Oc2ccccc2)O[C@@H](n2cnc3c(N)nc(F)nc32)C[C@@H]1O (single isomer, unassigned) [Example 20A] . Its concentration at 56 day was 3.2

---

assay: in vivo; conditions: male, Wistar Han, rat, in vivo; day 42; single IM Example 20A 57 mg/kg; read-out: Mean concentration of Example 20A
measured parameter: concentration at 42 day (ng/mL)
One number for each entry, in ng/mL.

Entry under test: C#C[C@]1(COP(=O)(N[C@@H](Cc2ccccc2)C(=O)OCCCCCCCCCCCCCCCCC)Oc2ccccc2)O[C@@H](n2cnc3c(N)nc(F)nc32)C[C@@H]1O (single isomer, unassigned) [Example 20A] . Its concentration at 42 day was 5.27

---

experiment: EFdA Rat PK Studies (subcutaneous and intramuscular groups), plasma concentration by LC-MS/MS; assay type: in vivo, Wistar Han rats; settings: male, Wistar Han, rat, plasma, intramuscular, 20 mg/kg, 0.5 hr; IM 20 mg/kg; plasma; read-out: Assayed Concentrations of EFdA, individual rats
measured parameter: concentration at 0.5 h (ng/mL)
One number for each entry, in ng/mL.

Entry under test: C#C[C@]1(CO)O[C@@H](n2cnc3c(N)nc(F)nc32)C[C@@H]1O [EFdA] . Its concentration at 0.5 h was 929

---

assay: in vivo; details: male, Wistar Han, rat, in vivo; day 84; single IM Example 39A 58 mg/kg; read-out: Mean concentration of Example 39A
measured parameter: concentration at 84 day (ng/mL)
Give bare numbers, in ng/mL.

Entry under test: C#C[C@]1(COP(=O)(N[C@@H](Cc2cc(F)cc(F)c2)C(=O)OCCCCCCCCCCCCCCCC)Oc2ccccc2)O[C@@H](n2cnc3c(N)nc(F)nc32)C[C@@H]1O (single isomer, unassigned) [Example 39A] . Its concentration at 84 day was 1.39
